Value source: patent US20240174690A1

Assay: Plasma protein binding assay (PPB), equilibrium dialysis, 10% FCS in PBS
Type: in vitro ADME
Settings: bovine, read-out: PPB 10% FCS (% fu)
Classification by fraction unbound follows these ranges: bin 0 = under 0.3, bin 1 = from 0.3 up to 0.5, bin 2 = 0.5 and over

Record excerpt, results attached:
[[record]]
smiles_repr = "C[C@H](Oc1cc(-n2ccc(C(N)=O)n2)nc(-c2noc3c2CCC[C@@]32CCCc3sc(N)c(C#N)c32)n1)[C@@H]1CCCN1C"
category_label = "bin 0"

[[record]]
smiles_repr = "C[C@H](Oc1cc(-n2ccc(-c3cn(C4CCOCC4)nn3)n2)nc(-c2noc3c2CCC[C@@]32CCCc3sc(N)c(C#N)c32)n1)[C@@H]1CCCN1C"
category_label = "bin 0"


Here's the next entry for you.
Which class does `C[C@H](Oc1cc(-c2ccn(C3COC3)n2)nc(-c2onc3c2CCC[C@@]32CCCc3sc(N)c(C#N)c32)n1)[C@@H]1CCCN1C` fall in?
bin 2

###

Measured pIC50 accompanies every entry in the list below.
Target: KRAS (G12C)::SOS1 (Homo sapiens (Human), UniProt P01116, C118S/C51S/C80L/G12C)
Sequence (P01116 other isoform, or with tags, fused parts or gaps G12C/C51S/C80L/C118S): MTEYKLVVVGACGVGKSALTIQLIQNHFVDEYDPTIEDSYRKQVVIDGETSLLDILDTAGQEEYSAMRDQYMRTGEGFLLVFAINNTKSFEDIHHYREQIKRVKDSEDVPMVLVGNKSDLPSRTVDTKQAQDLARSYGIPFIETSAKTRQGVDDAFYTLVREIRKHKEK
Experiment: KRAS::SOS1 AlphaScreen binding assay, KRAS G12C
Quick note: pIC50 means taking -log10 of the concentration in moles per liter.

Some entries whose results are on file:
[[record]]
compound = "C[C@H](Oc1cc(N2CCOC3(COC3)C2)nc(-c2noc3c2CCC[C@@]32CCCc3sc(N)c(C#N)c32)n1)[C@@H]1CCCN1C [II-77]"
value_kind = "pIC50"
readout_value = 8.70

[[record]]
compound = "C[C@H](Oc1cc(-c2ccn([C@H]3CCCOC3)n2)nc(-c2noc3c2CCC[C@@]32CCCc3sc(N)c(C#N)c32)n1)[C@@H]1CCCN1C [II-42]"
value_kind = "pIC50"
readout_value = 8.70

[[record]]
compound = "C[C@H](Oc1cc(N2C[C@H](C)N[C@@H](C)C2)nc(-c2onc3c2CCC[C@@]32CCCc3sc(N)c(C#N)c32)n1)[C@@H]1CCCN1C [I-6]"
value_kind = "pIC50"
readout_value = 8.30

[[record]]
compound = "C[C@H](Oc1cc(-n2cc3c(n2)CNC3)nc(-c2noc3c2CCC[C@@]32CCCc3sc(N)c(C#N)c32)n1)[C@@H]1CCCN1C [II-168]"
value_kind = "pIC50"
readout_value = 8.70

[[record]]
compound = "C[C@H](Oc1cc(-c2ccn(C[C@@H](C)O)n2)nc(-c2noc3c2CCC[C@@]32CCCc3sc(N)c(C#N)c32)n1)[C@@H]1CCCN1C [II-117]"
value_kind = "pIC50"
readout_value = 9.00

[[record]]
compound = "C[C@H](Oc1nc(-c2onc3c2CCC[C@@]32CCCc3sc(N)c(C#N)c32)cc(N2CCN(C)C3(CC3)C2)n1)[C@@H]1CCCN1C [I-40]"
value_kind = "pIC50"
readout_value = 7.06

[[record]]
compound = "C[C@H](Oc1cc(-n2cc3ccn([C@@H]4CCOC4)c(=O)c3n2)nc(-c2noc3c2CCC[C@@]32CCCc3sc(N)c(C#N)c32)n1)[C@@H]1CCCN1C [II-203]"
value_kind = "pIC50"
readout_value = 8.70

[[record]]
compound = "CO[C@H]1CCN(C)[C@@H]1[C@H](C)Oc1cc(-n2ccc(C(=O)N[C@@H](C)c3ccccn3)n2)nc(-c2noc3c2CCC[C@@]32CCCc3sc(N)c(C#N)c32)n1 [II-196]"
value_kind = "pIC50"
readout_value = 9.00


Please examine the following record next.
What value of pIC50 has been reported for the following compound? C[C@H](Oc1cc([C@@H]2CCOC2)nc(-c2onc3c2CCC[C@@]32CCCc3sc(N)c(C#N)c32)n1)[C@@H]1CCCN1C [I-22]
8.70
